experiment: NCI Yeast Anticancer Drug Screen. Data for the sgs1 mgt1 strain (AID 161);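 also: 0% = growth of cultures given vehicle only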; conditions: S. cerevisiae sgs1 mgt1 strain, at 50.0 µM, active compounds read high
The panel holds about 79,000 compounds, 15% with a hit somewhere; the sample as a whole holds those more often.

{"Mol": "C=CCN(CC=C)CCNc1cc(C)nc(Nc2nc3ccc(Cl)cc3[nH]2)n1", "growth inhibition [%]": 93.2}
{"Mol": "CCC/C=N/NC(=O)CCCCCCCCCCCCCCCCC", "growth inhibition [%]": 16.9}
{"Mol": "O=C(CCCN1CCC(O)(c2ccc(Cl)cc2)CC1)c1ccc(N2CCC(O)CC2)cc1", "growth inhibition [%]": -0.65}
